Each recorded value in this set is attributed to patent US20240392013A1.

Molecular target: T1, cyIL1RAP-His (Lake Pharma) (cynomolgus monkey, UniProt A0A2K5X5J5 21-367)
T1 construct: Bought protein (Lake Pharma, lot 16205819371); also called cynomolgus IL1RAP; monkey IL1RAP; not shown: His tag
T1 sequence: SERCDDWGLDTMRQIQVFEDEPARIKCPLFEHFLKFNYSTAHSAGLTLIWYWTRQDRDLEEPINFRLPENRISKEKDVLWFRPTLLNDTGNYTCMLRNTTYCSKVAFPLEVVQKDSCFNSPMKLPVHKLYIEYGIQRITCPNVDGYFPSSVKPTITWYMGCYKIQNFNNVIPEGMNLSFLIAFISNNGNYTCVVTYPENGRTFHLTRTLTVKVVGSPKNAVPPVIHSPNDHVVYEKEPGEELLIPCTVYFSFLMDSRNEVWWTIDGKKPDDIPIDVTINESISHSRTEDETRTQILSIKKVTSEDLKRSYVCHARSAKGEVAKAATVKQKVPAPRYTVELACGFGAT
Test: Octet BLI; mAb captured on anti-mouse IgG Fc sensor; cyIL1RAP-His analyte
Result type: kon (M⁻¹ s⁻¹)
One number for each entry, in M⁻¹ s⁻¹.

Exercise: Fill blank: measured kon of the binder STLX2045 (antibody, V domains shown, Purified from hybridoma of immunized Alivamab mice; intact IgG; captured on anti-mouse IgG Fc sensors in Octet; kappa light chain; also called 74804_45C18A) VH: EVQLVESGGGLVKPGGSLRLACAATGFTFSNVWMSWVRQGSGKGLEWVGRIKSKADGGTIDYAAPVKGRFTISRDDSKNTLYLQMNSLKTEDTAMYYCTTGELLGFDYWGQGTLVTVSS VL: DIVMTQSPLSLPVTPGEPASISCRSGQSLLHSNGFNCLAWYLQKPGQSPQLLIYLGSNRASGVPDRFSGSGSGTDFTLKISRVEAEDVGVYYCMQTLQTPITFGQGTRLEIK is ____.
Key: 338000
